Test: Chemical stability of the compound in at pH 7.4 measured at 12 hrs by HPLC based non-enzymatic stability assay
Type: physicochemical
Settings: buffer, read-out: Stability
property: remaining at 12 h (%)
Provide the reading as a plain figure in %.

compound: CNCc1ccc(-c2nnc(-c3nc(-c4ccc(S(=O)(=O)NCCCCCCC(=O)NCCCC#Cc5cccc6c5CN(C5CCC(=O)NC5=O)C6=O)cc4)cnc3N)o2)cc1 (stereo not drawn)
remaining at 12 h, %: 101

compound: CNCc1ccc(-c2nnc(-c3nc(-c4ccc(S(=O)(=O)NCCCCC(=O)NCCCC#Cc5cccc6c5CN(C5CCC(=O)NC5=O)C6=O)cc4)cnc3N)o2)cc1 (stereo not drawn)
remaining at 12 h, %: 101

### Prompt Input Nc1ncc(-c2ccc(S(=O)(=O)NCCCCCC(=O)NCCCC#Cc3cccc4c3CN(C3CCC(=O)NC3=O)C4=O)cc2)nc1C(=O)Nc1ccccc1 (stereo not drawn) , output reported remaining at 12 h.
### Response 104
